assay: soluble on expression in E. coli; label from the status in PepcDB or PDB records

INPUT_SEQUENCE	soluble on expression in E. coli
LQKVFDNTVVQNSDIKKFNESKLIKPNLMQEHALKSLESLRNVGEEKGLIISATGTGKTILCALDVRAYSPDKFLFIVHNEGILNRAIEEFKKVFPYEDESNFGLLTGKRKDHDAKFLFATIQTLSKKENYKLFNSNHFDYIVFDEAHRIAASSYQKIFNYFKPNFLLGMTATPERTDELNIFE	not soluble
GPGSMTLYSIYIFNRYGDNIFYKEWNRTTAPQEGEAGLVAGFIYTLQHFSSQLSSSGEGGFYAVRTPLYKLHYNETMTGYRVALLSDKDLKTDVVQNILRKMFSDVFQRYVTKDPNYSHTQGRVITSTAFGEALDQFFHSQKIL	not soluble
TDAQKRRRAVGHALAYAGYAEIIPSPFMDPEVFDVWGLAADDERRKTVSVLNPLEAERNVLSTSLLPSMLDAVKRNVARGHNDFSLFGLQQVAFEHGSGVSPMPSVASRPEESVVAELVDSLPNQPLHVATVGTGNIEFEGPWGKGRAYTFADAIESARAVARAAGVTLELANADALPWHPGRCAALLIDGTPVGYAGELHPQILEKAGLPARTCAMELDLSALP	not soluble
MPDRPQHPTASRQSSMVSWNHGAAGWLHCVQCGSATNPTACLDWLPPIHARSGPMYAEHDVVVLTRDVPDKSLIAGDVGAVVGRYAAGGYEVDFTAANGCTVAVVTLAGDDIRPRRRREIPHVREVA	not soluble
MAIAYFIPDQAQLLARSYQQNGQQTAASPRTTATAAAPSQQQQQSQQQQQQQRHHHQQQRPQFRANISVPLGSQQGSMTMSEFGCWDLLAQIFCYALRIYSYSSSQRQPTVIQISFEISSGGQNNDEDDVTDATSKEN	not soluble
MGSDKIHHHHHHEELEYKGMNTLQISNVDDLISFYQYADDRIPLISGHRGGRGKGYPENSMETFENTLSYTPATFEIDPRLTKDSVIVLFHDDTLERTSNGTGKVSDYTWEELQNFRLKDPEGNITNYRIPTLEEAIRWARGKTILILDKKDVPMERTAQLITDMQAEPYVMITVHDGASARFFYEKNPNFMFEAFVKTKEAVQDYEDNGIPWSHIMAYVGPKITPEVREVIDMLHERGVMCMISTAPSDDKLSTPESRAEAYRMIIRQGVDIIESDRPIEVAEAISSLIPVSSSKGKFFSTL	not soluble
MLNNKRLFTSESVTEGHPDKIADQVSDAILDAILKDDPNARVACETTVTTGMALIAGEISTTTYVDIPKVVRETIKEIGYTRAKYGYDYETMAILTAIDEQSPDIAQGVDKALEYRDKDSEEEIEATGAGDQGLMFGYATNETETYMPLAIYLSHQLAKRLSDVRKDGTLNYLRPDGKVQVTVEYDENDNPVRIDTIVVSTQHAEDVTLEQIQEDIKAHVIYPTVPENLINEQTKFYINPTGRFVIGGPQGDAGLTGRKIIVDTYGGYARHGGGCFSGKDPTKVDRSAAYAARYVAKNIVAAGLADQCEVQLAYAIGVAEPVSIAIDTFGTGKVSEGQLVEAVRKHFDLRPAGIIKMLDLKQPIYKQTAAYGHFGRTDVLFPWEKLDKVEELKDAVK	not soluble
MLTTLAISNYRTLREIVLPLGRLNVVTGANGSGKSNLYKALRLLAQTAQGGVVNALALEGGLDSCFWAGPENLTKGMLAGDTPIEATVRQAPKRLKLGFAGEDFSYLIELGLPKPDSTTLFGLDPQIKREAIWNGAKYRPASVLVERRGPMVKSRSQDGQGWITLSAHLQSSDSIFTELADPERSPEVLKLRDSIRAWRFYDHFRTDTDAPARRPQLGTATPVLHHDGRDLPSAIQTIFEIGDKSAFDHAVSDAFPGAKVRITPQAGGILQLEFQQQGLLRPLYASELSDGTLRYLLLIAALLTPRPPELMVLNEPETSLHPDLLPALARLIAKASELEHHHHHH	not soluble
MGSDKIHHHHHHMIHVGTCGFCEKQDKYFQDFSTVEIQQTFYKILQESTLKKWREKAPEGFVFSIKAFQGVTHPPNSPTWRRSNVKPSKNVGLLRPTNEVIHYWKITLNEAKILNARFILIQLPRSFKESEESFSNAERFFSIIDRGEFEIAVELRGWSERGIKKFVREFDVIDVVDPMVRVPLHGGGVNYYRLHGKYENGRIIYSYKYSDEELLKIRERVLSFHVEESYVYFNNSNMCEDAQRFKQLIMKF	not soluble
MSLQQALINFYYQFHTKQHYFLCHDILEDAWKAENNYSKQDAVVSLILFATACYHYRRNNLKGAYKSFNKSKEIIQNAKDRDALYLNLNDYQLLIEQQIAKLNAAKPFSSVILPITPVFERIIKANYPDYDYNQETATDPFIVDHHMRRDRSEVIAAKEEAIQLRKHRRNEGHHHHHH	soluble
MGSDKIHHHHHHMTNKVVNNDKISSVGIIGCGWLGSALAYQLKNQDIAVLATRSNIDNIEQLKSQGIEAEVLSLPAEQAQLNTHPIFKQQCLVIAITPQFRQGRVDYADKVQQLVESAKVGNCVEQIILLSSSAIYNGLSGDVEENSILDMSADKVSVLNQAEQAVLSFNHPGRNESRLNALNAEVGNKKAYVLRLSGLVGPKRHPGKFLLNGHMLKSPQAIVNLIHQQDAVGLIQTLLQSANCGGIFNGVSSTKVTKKQYYQAAASALQLPTPTFEEIELSEDNAPKVVSGKKTQAELAYEFVYDDLLAWLELAV	not soluble
ASNFTQFVLVDNGGTGDVTVAPSNFANGVAEWISSNSRSQAYKVTCSVRQSSAQNRKYTIKVEVPKVATQTVGGVELPVAAWRSYLNMELTIPIFATNSDCELIVKAMQGLLKDGNPIPSAIAANSGIYANFTQFVLVDNGGTGDVTVAPSNFANGVAEWISSNSRSQAYKVTCSVRQSSAQNRKYTIKVEVPKVATQTVGGVELPVAAWRSYLNMELTIPIFATNSDCELIVKAMQGLLKDGNPIPSAIAANSGIY	soluble
